biological target: Human α-thrombin (Homo sapiens, UniProt P00734)
pKi: −log10 of the molar value. Where a name gives a salt, the structure may show the parent alone.

- MOLECULE: "N#Cc1cc(F)c(NCC(F)(F)c2ccccn2)[n+]([O-])c1CC(=O)NCc1ncccc1F [Example 1, dihydrochloride]"
  pKi: "7.96 to 8.01"

The measured values listed here are drawn from patent US7262210B2.
